measurement_kind: melting point

[[record]]
compound = "COc1ccc(/C=C/C(=O)/C=C/CCc2ccccc2)cc1O [CU-8]"
measurement_kind = "melting point"
result = "72 to 74 °C"

[[record]]
compound = "Cc1ccc(CC/C=C/C(=O)/C=C/c2ccc(O)cc2)cc1 [CU-11]"
measurement_kind = "melting point"
result = "132 to 134 °C"

[[record]]
compound = "O=C(/C=C/CCc1ccc(O)cc1)/C=C/c1ccccc1 [CU-25]"
measurement_kind = "melting point"
result = "75 to 77 °C"

[[record]]
compound = "COc1cc(/C=C/C(=O)/C=C/CCc2ccc(O)c(OC)c2)ccc1O [CU-20]"
measurement_kind = "melting point"
result = "103 to 105 °C"

[[record]]
compound = "COc1ccc(/C=C/C(=O)/C=C/CCc2ccc(O)cc2)cc1O [CU-18]"
measurement_kind = "melting point"
result = "152 to 154 °C"

[[record]]
compound = "O=C(/C=C/CCc1ccc(Cl)cc1)/C=C/c1ccccc1 [CU-28]"
measurement_kind = "melting point"
result = "48 to 50 °C"

[[record]]
compound = "COc1ccc(/C=C/C(=O)/C=C/CCc2ccccc2)cc1 [CU-3]"
measurement_kind = "melting point"
result = "48 to 50 °C"

[[record]]
compound = "COc1cc(CC/C=C/C(=O)/C=C/c2ccccc2)ccc1O [CU-26]"
measurement_kind = "melting point"
result = "72 to 74 °C"

[[record]]
compound = "O=C(/C=C/CCc1ccccc1)/C=C/c1ccccc1O [CU-5]"
measurement_kind = "melting point"
result = "134 to 136 °C"

[[record]]
compound = "COc1ccc(CC/C=C/C(=O)/C=C/c2ccc(O)cc2)cc1 [CU-13]"
measurement_kind = "melting point"
result = "136 to 138 °C"

[[record]]
compound = "COc1ccc(/C=C/C(=O)/C=C/CCc2ccc(OC)cc2)cc1 [CU-14]"
measurement_kind = "melting point"
result = "65 to 67 °C"

[[record]]
compound = "O=C(/C=C/CCc1cccc(O)c1)/C=C/c1ccccc1 [CU-24]"
measurement_kind = "melting point"
result = "70 to 72 °C"

[[record]]
compound = "COc1ccc(/C=C/C(=O)/C=C/CCc2ccc(OC)c(OC)c2)cc1OC [CU-2]"
measurement_kind = "melting point"
result = "97 to 99 °C"

[[record]]
compound = "Cc1ccc(CC/C=C/C(=O)/C=C/c2ccccc2)cc1 [CU-22]"
measurement_kind = "melting point"
result = "62 to 64 °C"

[[record]]
compound = "O=C(/C=C/CCc1ccccc1)/C=C/c1ccc(Cl)cc1 [CU-10]"
measurement_kind = "melting point"
result = "70 to 72 °C"

[[record]]
compound = "COc1ccc(CC/C=C/C(=O)/C=C/c2ccccc2)cc1 [CU-21]"
measurement_kind = "melting point"
result = "58 to 60 °C"

[[record]]
compound = "O=C(/C=C/CCc1ccccc1)/C=C/c1cccc(O)c1 [CU-6]"
measurement_kind = "melting point"
result = "94 to 96 °C"

[[record]]
compound = "COc1cc(/C=C/C(=O)/C=C/CCc2ccccc2)cc(OC)c1OC [CU-4]"
measurement_kind = "melting point"
result = "95 to 97 °C"

[[record]]
compound = "O=C(/C=C/CCc1ccccc1)/C=C/c1ccc(O)cc1 [CU-7]"
measurement_kind = "melting point"
result = "121 to 123 °C"

[[record]]
compound = "COc1cc(/C=C/C(=O)/C=C/CCc2ccc(O)cc2)ccc1O [CU-17]"
measurement_kind = "melting point"
result = "141 to 143 °C"

[[record]]
compound = "COc1cc(/C=C/C(=O)/C=C/CCc2ccccc2)ccc1O [CU-9]"
measurement_kind = "melting point"
result = "114 to 116 °C"

[[record]]
compound = "Cc1ccc(/C=C/C(=O)/C=C/CCc2ccccc2)cc1 [CU-16]"
measurement_kind = "melting point"
result = "46 to 48 °C"

